Test system: human leukemia cancer cell line (CCRF-CEM)
Assay: Cytotoxicity (MTS proliferation assay) of peptides in CCRF-CEM cells
Format: cell-based
Conditions: 100 µM peptide
Peptide text beside a SMILES is read from it. * marks the point of attachment. Oleoyl = CCCCCCCC/C=C\CCCCCCCC(=O)*; Myristoyl = CCCCCCCCCCCCCC(=O)*; Lauroyl = CCCCCCCCCCCC(=O)*
Endpoint: cytotoxicity (in words)

CCCCCCCCCCCCCC(=O)N[C@@H](Cc1c[nH]cn1)C(=O)N[C@@H](CCCNC(=N)N)C(=O)N[C@@H](Cc1c[nH]cn1)C(=O)N[C@@H](CCCNC(=N)N)C(=O)N[C@@H](Cc1c[nH]cn1)C(=O)N[C@@H](CCCNC(=N)N)C(=O)N[C@@H](Cc1c[nH]cn1)C(=O)N[C@@H](CCCNC(=N)N)C(=O)O [C14-(HR)4] (Myristoyl-HRHRHRHR-OH); mild cytotoxicity
CCCCCCCCCCCC(=O)N[C@@H](Cc1c[nH]cn1)C(=O)N[C@@H](CCCNC(=N)N)C(=O)N[C@@H](Cc1c[nH]cn1)C(=O)N[C@@H](CCCNC(=N)N)C(=O)N[C@@H](Cc1c[nH]cn1)C(=O)N[C@@H](CCCNC(=N)N)C(=O)N[C@@H](Cc1c[nH]cn1)C(=O)N[C@@H](CCCNC(=N)N)C(=O)O [C12-(HR)4] (Lauroyl-HRHRHRHR-OH); mild cytotoxicity
CCCCCCCC/C=C\CCCCCCCC(=O)N[C@@H](Cc1c[nH]cn1)C(=O)N[C@@H](CCCNC(=N)N)C(=O)N[C@@H](Cc1c[nH]cn1)C(=O)N[C@@H](CCCNC(=N)N)C(=O)N[C@@H](Cc1c[nH]cn1)C(=O)N[C@@H](CCCNC(=N)N)C(=O)N[C@@H](Cc1c[nH]cn1)C(=O)N[C@@H](CCCNC(=N)N)C(=O)O [C18-(HR)4] (Oleoyl-HRHRHRHR-OH); mild cytotoxicity
